Measured 5-HT2C pIC50 by item
target: human cloned 5-HT2C receptor, expressed in CHO cells (Homo sapiens, UniProt P28335); construct: expressed in transfected cells; host or cells: CHO cells; experiment: In vitro binding affinity for 5-HT2C receptor ([3H]mesulergine radioligand binding); conditions: human cloned 5-HT2C receptor
Sequence (P28335 33-458): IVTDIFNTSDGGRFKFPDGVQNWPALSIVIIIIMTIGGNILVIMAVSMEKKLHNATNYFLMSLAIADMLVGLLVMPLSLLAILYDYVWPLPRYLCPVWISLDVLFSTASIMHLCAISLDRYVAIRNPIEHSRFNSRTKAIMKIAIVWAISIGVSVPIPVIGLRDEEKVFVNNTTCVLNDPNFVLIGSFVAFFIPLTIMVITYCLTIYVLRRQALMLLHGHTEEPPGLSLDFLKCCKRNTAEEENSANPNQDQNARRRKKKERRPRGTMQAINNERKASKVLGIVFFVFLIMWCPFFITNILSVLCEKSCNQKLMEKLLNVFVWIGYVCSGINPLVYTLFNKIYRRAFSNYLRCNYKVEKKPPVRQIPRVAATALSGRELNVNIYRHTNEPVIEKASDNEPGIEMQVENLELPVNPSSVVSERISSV

| COMPOUND | MEASURED ENDPOINT | EXPERIMENTAL VALUE |
| --- | --- | --- |
| O=C(O)C(=O)O.OC1CCN(CC2CC3c4ccccc4Oc4ccc(Br)cc4C3O2)CC1 (stereo not shown) | 5-HT2C pIC50 | 7.81 |

stdin: Which value of 5-HT2C pIC50 has been reported for COc1ccc2c(c1)C1OC(CN3CCC(O)CC3)CC1c1ccccc1O2.O=C(O)C(=O)O (racemic) [Compound 287] in the records?
stdout: 6.54

stdin: Any idea what 5-HT2C pIC50 was measured for CC(=O)OCCN1[C@H](C)CN(C[C@H]2C[C@@H]3c4ccccc4Cc4ccc(F)cc4[C@@H]3O2)C[C@@H]1C.O=C(O)C(=O)O ?
stdout: 7.87

stdin: Quick one: 5-HT2C pIC50 of O=C(O)C(=O)O.OC1CCN(CC2CC3c4ccccc4Oc4ccc(F)cc4C3O2)CC1 (racemic) ?
stdout: 6.93

Origin of the recorded values: patent US8569267B2
